Here, each record is paired with measured MIC data.
tested on: Staphylococcus aureus NRRL B313; settings: agar dilution
Lab book: enter the figure in mg/L, no units written.

{"MOLECULE": "CN[C@H](CC(C)C)C(=O)N[C@H]1C(=O)N[C@@H](CC(N)=O)C(=O)N[C@H]2C(=O)N[C@H]3C(=O)N[C@H](C(=O)N[C@H](C(=O)O)c4cc(O)cc(O)c4-c4cc3ccc4O)[C@H](O)c3ccc(c(Cl)c3)Oc3cc2cc(c3O[C@@H]2O[C@H](CO)[C@@H](O)[C@H](O)[C@H]2O)Oc2ccc(cc2Cl)[C@H]1O [Compound 13, Desvancosamine-Vancomycin]", "TARGET UNDER TEST": "Staphylococcus aureus NRRL B313", "OBS VALUE": 8}
{"MOLECULE": "CC(C)C[C@@H](N)C(=O)N[C@H]1C(=O)N[C@@H](CC(N)=O)C(=O)N[C@H]2C(=O)N[C@H]3C(=O)N[C@H](C(=O)N[C@H](C(=O)O)c4cc(O)cc(O)c4-c4cc3ccc4O)[C@H](O)c3ccc(c(Cl)c3)Oc3cc2cc(c3O)Oc2ccc(cc2Cl)[C@H]1O [Compound 9, Agluco-A51568A]", "TARGET UNDER TEST": "Staphylococcus aureus NRRL B313", "OBS VALUE": 0.5}

Continue with the molecule presented below.
Exercise: Entry CC(C)C[C@H](C(=O)N[C@H]1C(=O)N[C@@H](CC(N)=O)C(=O)N[C@H]2C(=O)N[C@H]3C(=O)N[C@H](C(=O)N[C@H](C(=O)[O-])c4cc(O)cc(O)c4-c4cc3ccc4O)[C@H](O)c3ccc(c(Cl)c3)Oc3cc2cc(c3O[C@@H]2O[C@H](CO)[C@@H](O)[C@H](O)[C@H]2O)Oc2ccc(cc2Cl)[C@H]1O)[N+](C)(C)C [Compound 5, M43C] , system Staphylococcus aureus NRRL B313: what MIC was measured?
Solution: 2

---

tested on: Streptococcus pneumoniae Park 1; assay type: cell-based; settings: agar dilution
OUTCOME MEASURE: MIC (µg/mL)
Lab book: enter the figure in µg/mL, no units written.

{"COMPOUND": "CC(C)C[C@H](C(=O)N[C@H]1C(=O)N[C@@H](CC(N)=O)C(=O)N[C@H]2C(=O)N[C@H]3C(=O)N[C@H](C(=O)N[C@H](C(=O)[O-])c4cc(O)cc(O)c4-c4cc3ccc4O)[C@H](O)c3ccc(c(Cl)c3)Oc3cc2cc(c3O[C@@H]2O[C@H](CO)[C@@H](O)[C@H](O)[C@H]2O)Oc2ccc(cc2Cl)[C@H]1O)[N+](C)(C)C [Compound 5, M43C]", "TARGET UNDER TEST": "Streptococcus pneumoniae Park 1", "MIC [µg/mL]": 1}
{"COMPOUND": "CN[C@H](CC(C)C)C(=O)N[C@H]1C(=O)N[C@@H](CC(N)=O)C(=O)N[C@H]2C(=O)N[C@H]3C(=O)N[C@H](C(=O)N[C@H](C(=O)O)c4cc(O)cc(O)c4-c4cc3ccc4O)[C@H](O)c3ccc(c(Cl)c3)Oc3cc2cc(c3O)Oc2ccc(cc2Cl)[C@H]1O", "TARGET UNDER TEST": "Streptococcus pneumoniae Park 1", "MIC [µg/mL]": 0.5}

Continue with the compound presented below.
Exercise: So what does the record say about MIC for CC(C)C[C@@H](N)C(=O)N[C@H]1C(=O)N[C@@H](CC(N)=O)C(=O)N[C@H]2C(=O)N[C@H]3C(=O)N[C@H](C(=O)N[C@H](C(=O)O)c4cc(O)cc(O)c4-c4cc3ccc4O)[C@H](O)c3ccc(c(Cl)c3)Oc3cc2cc(c3O)Oc2ccc(cc2Cl)[C@H]1O [Compound 9, Agluco-A51568A] ?
Solution: 0.5
